All figures here come from patent US20100087371.

Biological target: hGHQ40N, P01241
Sequence (P01241 27-217 Q66N): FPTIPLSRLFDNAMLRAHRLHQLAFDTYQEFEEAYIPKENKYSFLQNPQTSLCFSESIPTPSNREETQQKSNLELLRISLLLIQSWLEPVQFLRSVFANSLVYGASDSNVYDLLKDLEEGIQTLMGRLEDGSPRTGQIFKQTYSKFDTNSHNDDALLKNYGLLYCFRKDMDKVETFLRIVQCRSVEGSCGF
Collected Activity towards hGHQ40N (RFU/sec/µg), dansyl-cadaverine incorporation values appear next to each entry.
Lab book: enter the figure in RFU/sec/µg, no units written.

IN: Entry AlaPro-mTGase from S. mobaraensis (protein) APDSDDRVTPPAEPLDRMPDPYRPSYGRAETVVNNYIRKWQQVYSHRDGRKQQMTEEQREWLSYGCVGVTWVNSGQYPTNRLAFASFDEDRFKNELKNGRPRSGETRAEFEGRVAKESFDEEKGFQRAREVASVMNRALENAHDESAYLDNLKKELANGNDALRNEDARSPFYSALRNTPSFKERNGGNHDPSRMKAVIYSKHFWSGQDRSSSADKRKYGDPDAFRPAPGTGLVDMSRDRNIPRSPTSPGEGFVNFDYGWFGAQTEADADKTVWTHGNHYHAPNGSLGAMHVYESKFRNWSEGYSDFDRGAYVITFIPKSWNTAPDKVKQGWP : reported Activity towards hGHQ40N (RFU/sec/µg), dansyl-cadaverine incorporation = ?
OUT: 5.05

IN: Entry Mature mTGase from S. ladakanum (protein) DSDERVTPPAEPLDRMPDPYRPSYGRAETIVNNYIRKWQQVYSHRDGRKQQMTEEQREWLSYGCVGVTWVNSGQYPTNRLAFAFFDEDKYKNELKNGRPRSGETRAEFEGRVAKDSFDEAKGFQRARDVASVMNKALENAHDEGAYLDNLKKELANGNDALRNEDARSPFYSALRNTPSFKDRNGGNHDPSKMKAVIYSKHFWSGQDRSGSSDKRKYGDPEAFRPDRGTGLVDMSRDRNIPRSPTSPGESFVNFDYGWFGAQTEADADKTVWTHGNHYHAPNGSLGAMHVYESKFRNWSDGYSDFDRGAYVVTFVPKSWNTAPDKVKQGWP please
OUT: 3.55
